Recorded values, source ChEMBL document CHEMBL5550120.

# experimental.target: Protein cereblon/Eukaryotic peptide chain release factor GTP-binding subunit ERF3A (Homo sapiens, UniProt Q96SW2+P15170)
# Sequence (Q96SW2 whole entry): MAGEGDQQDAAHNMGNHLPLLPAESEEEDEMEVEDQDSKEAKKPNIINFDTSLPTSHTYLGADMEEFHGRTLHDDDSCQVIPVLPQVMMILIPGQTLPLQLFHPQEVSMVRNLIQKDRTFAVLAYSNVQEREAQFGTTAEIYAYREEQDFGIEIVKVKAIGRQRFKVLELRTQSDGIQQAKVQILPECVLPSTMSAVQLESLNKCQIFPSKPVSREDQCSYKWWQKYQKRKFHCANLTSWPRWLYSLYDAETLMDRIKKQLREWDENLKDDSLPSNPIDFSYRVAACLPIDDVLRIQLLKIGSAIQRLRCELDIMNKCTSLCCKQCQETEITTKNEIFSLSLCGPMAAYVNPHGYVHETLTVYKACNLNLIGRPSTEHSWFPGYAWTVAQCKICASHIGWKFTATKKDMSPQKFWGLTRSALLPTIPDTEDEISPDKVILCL
# Sequence (P15170 whole entry): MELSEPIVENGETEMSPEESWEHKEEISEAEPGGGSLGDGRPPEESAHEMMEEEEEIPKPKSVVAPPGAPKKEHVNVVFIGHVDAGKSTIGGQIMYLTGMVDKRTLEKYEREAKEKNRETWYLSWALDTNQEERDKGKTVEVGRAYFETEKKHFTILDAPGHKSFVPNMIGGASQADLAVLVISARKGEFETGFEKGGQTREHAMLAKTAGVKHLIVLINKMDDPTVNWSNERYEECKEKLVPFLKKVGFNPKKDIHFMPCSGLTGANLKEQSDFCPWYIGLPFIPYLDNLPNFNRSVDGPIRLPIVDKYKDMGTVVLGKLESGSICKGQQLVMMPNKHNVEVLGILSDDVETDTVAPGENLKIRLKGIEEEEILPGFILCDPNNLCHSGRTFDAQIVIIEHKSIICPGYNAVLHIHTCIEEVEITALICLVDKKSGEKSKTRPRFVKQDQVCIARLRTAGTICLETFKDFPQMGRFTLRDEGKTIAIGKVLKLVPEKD
# assay.details: Molecular glue activity at CRBN/HiBiT-tagged GSPT1 in human MOLT-4 cells assessed as induction of GSPT1 degradation measured after 3 hrs by immunoblot analysis
# Format: cell-based
measurement.type: DC50 (nM)
# number only, unit nM dropped from output

The measured DC50 associated with CCCOc1ccccc1CNS(=O)(=O)Nc1ccc2c(c1)CN(C1CCC(=O)NC1=O)C2=O (stereo not given) reads 90

In plain terms, CCC(C)(CCNS(=O)(=O)Nc1ccc2c(c1)CN(C1CCC(=O)NC1=O)C2=O)c1ccccc1OC (stereo not given) has a documented DC50 of 700

What the record says about Cc1cccc(Cl)c1OCCNS(=O)(=O)Nc1ccc2c(c1)CN(C1CCC(=O)NC1=O)C2=O (stereo not given) : DC50 is 280

The value of DC50 measured for the compound CC(C)CCOc1ccccc1OCCNS(=O)(=O)Nc1ccc2c(c1)CN(C1CCC(=O)NC1=O)C2=O (stereo not given) turned out to be 90

----------
# experimental.target: Protein cereblon/Eukaryotic peptide chain release factor GTP-binding subunit ERF3A (Homo sapiens, UniProt Q96SW2+P15170)
# assay.details: Molecular glue activity at CRBN/HiBiT-tagged GSPT1 in wild type human MV4-11 cells assessed as induction of GSPT1 degradation measured after 3 hrs by immunoblot analysis
# Type: cell-based
For each of the compounds below, state its DC50.
// note: answer is a bare numeric in nM

Form: compound = Cc1cccc(Cl)c1OCCNS(=O)(=O)Nc1ccc2c(c1)CN(C1CCC(=O)NC1=O)C2=O (stereo not given) ; DC50 = 280

# DC50 (compound: CCCOc1ccccc1CNS(=O)(=O)Nc1ccc2c(c1)CN(C1CCC(=O)NC1=O)C2=O (stereo not given) ) is 60

Reported DC50 for CCC(C)(CCNS(=O)(=O)Nc1ccc2c(c1)CN(C1CCC(=O)NC1=O)C2=O)c1ccccc1OC (stereo not given) was 700

Looking up CC(C)CCOc1ccccc1OCCNS(=O)(=O)Nc1ccc2c(c1)CN(C1CCC(=O)NC1=O)C2=O (stereo not given) , I found its DC50 recorded as 120

----------
Provide the reported DC50 of each item.
# experimental.target: Protein cereblon/Eukaryotic peptide chain release factor GTP-binding subunit ERF3A (Homo sapiens, UniProt Q96SW2+P15170)
# assay.details: Molecular glue activity at CRBN/HiBiT-tagged GSPT1 in wild type human BE2C cells assessed as induction of GSPT1 degradation measured after 3 hrs by immunoblot analysis
# Assay type: cell-based
Numbers only here, please. The scale is µM.

For this molecule ( CC(C)CCOc1ccccc1OCCNS(=O)(=O)Nc1ccc2c(c1)CN(C1CCC(=O)NC1=O)C2=O (stereo not given) ), measured DC50 is 14

The reported DC50 of the molecule CCCOc1ccccc1CNS(=O)(=O)Nc1ccc2c(c1)CN(C1CCC(=O)NC1=O)C2=O (stereo not given) was 7

Given item CCC(C)(CCNS(=O)(=O)Nc1ccc2c(c1)CN(C1CCC(=O)NC1=O)C2=O)c1ccccc1OC (stereo not given) , the value recorded as its DC50 is 19

Cc1cccc(Cl)c1OCCNS(=O)(=O)Nc1ccc2c(c1)CN(C1CCC(=O)NC1=O)C2=O (stereo not given) yielded DC50 of 8
